Cited source for all entries: patent US7960568B2

experimental_target: 5HT6 human recombinant receptor (Homo sapiens)
Construct: purchased Receptor Biology; host or cells: HEK-293 cell membranes
assay_method_text: Binding with serotonin receptor 5HT6 ([3H]-LSD radioligand, HEK-293 cell membranes)
run_parameters: 10 nM compound; [3H]-LSD 2.7 nM; HEK-293 membranes; 60 min, 37° C.
Consider the following compounds; for each one, report its inhibition at 0.01 µM.

Previously resolved entries follow.
compound: CCNCCc1c[nH]c2ccc(NS(=O)(=O)c3sc4ccc(Cl)cc4c3C)cc12 [Example 1]
experimental_target: 5HT6 human recombinant receptor (Homo sapiens)
inhibition at 0.01 µM: 82.7%

compound: Cc1c(S(=O)(=O)Nc2ccc3[nH]cc(CCN)c3c2)sc2ccc(Cl)cc12 [Example 5]
experimental_target: 5HT6 human recombinant receptor (Homo sapiens)
inhibition at 0.01 µM: 63.5%

compound: CNCCc1c[nH]c2ccc(NS(=O)(=O)c3c(Cl)nc4sccn34)cc12 [Example 3]
experimental_target: 5HT6 human recombinant receptor (Homo sapiens)
inhibition at 0.01 µM: 47.3%

compound: NCCc1c[nH]c2ccc(NS(=O)(=O)c3c(Cl)nc4sccn34)cc12 [Example 6]
experimental_target: 5HT6 human recombinant receptor (Homo sapiens)
inhibition at 0.01 µM: 75.7%

compound: CNCCc1c[nH]c2ccc(NS(=O)(=O)c3sc4ccc(Cl)cc4c3C)cc12 [Example 2]
experimental_target: 5HT6 human recombinant receptor (Homo sapiens)
inhibition at 0.01 µM: 62.5%

query: Find the recorded inhibition at 0.01 µM belonging to CCNCCc1c[nH]c2ccc(NS(=O)(=O)c3c(Cl)nc4sccn34)cc12 [Example 4] and report it.
result: 61.8%

====

experimental_target: 5HT6 human recombinant receptor (Homo sapiens, UniProt P50406)
Sequence (P50406 whole entry): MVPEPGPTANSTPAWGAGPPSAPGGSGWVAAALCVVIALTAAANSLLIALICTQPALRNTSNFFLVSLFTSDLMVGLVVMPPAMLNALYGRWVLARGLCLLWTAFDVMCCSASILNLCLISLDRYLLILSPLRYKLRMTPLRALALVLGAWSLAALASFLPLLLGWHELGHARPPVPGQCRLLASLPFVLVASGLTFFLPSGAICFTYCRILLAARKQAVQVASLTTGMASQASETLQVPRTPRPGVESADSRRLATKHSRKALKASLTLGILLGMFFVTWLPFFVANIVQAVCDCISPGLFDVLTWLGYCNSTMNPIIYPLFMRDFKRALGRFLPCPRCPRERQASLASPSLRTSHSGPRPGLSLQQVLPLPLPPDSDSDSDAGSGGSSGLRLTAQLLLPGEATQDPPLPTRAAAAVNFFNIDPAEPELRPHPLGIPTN
assay_method_text: Binding with serotonin receptor 5HT6 ([3H]-LSD radioligand, HEK-293 cell membranes)
run_parameters: [3H]-LSD 2.7 nM; HEK-293 membranes; non-linear regression EBDA/LIGAND
readout_name: pKi
Answers are plain numbers, as −log10 of the molar value.

smiles_data: Cc1c(S(=O)(=O)Nc2ccc3[nH]cc(CCN)c3c2)sc2ccc(Cl)cc12
reported: 7.93
//
smiles_data: CCNCCc1c[nH]c2ccc(NS(=O)(=O)c3sc4ccc(Cl)cc4c3C)cc12
reported: 9.17
//
smiles_data: NCCc1c[nH]c2ccc(NS(=O)(=O)c3c(Cl)nc4sccn34)cc12
reported: 8.44
//
smiles_data: CNCCc1c[nH]c2ccc(NS(=O)(=O)c3sc4ccc(Cl)cc4c3C)cc12
reported: 8.70

// moving on: another record for pKi
query: Find the recorded pKi belonging to CCNCCc1c[nH]c2ccc(NS(=O)(=O)c3c(Cl)nc4sccn34)cc12 and report it.
result: 8.19

====

experimental_target: 5HT6 human recombinant receptor (Homo sapiens, UniProt P50406)
Construct: purchased Receptor Biology; host or cells: HEK-293 cell membranes
assay_method_text: Binding with serotonin receptor 5HT6 ([3H]-LSD radioligand, HEK-293 cell membranes)
run_parameters: 100 nM compound; [3H]-LSD 2.7 nM; HEK-293 membranes; 60 min, 37° C.
Values of inhibition at 0.1 µM greater than or equal to 80% map to Satisfied; values below map to Not satisfied.

A selection of reference data follows.
molecule: NCCc1c[nH]c2ccc(NS(=O)(=O)c3c(Cl)nc4sccn34)cc12 [Example 6]
class_assignment: Satisfied

molecule: Cc1c(S(=O)(=O)Nc2ccc3[nH]cc(CCN)c3c2)sc2ccc(Cl)cc12 [Example 5]
class_assignment: Satisfied

molecule: CNCCc1c[nH]c2ccc(NS(=O)(=O)c3c(Cl)nc4sccn34)cc12 [Example 3]
class_assignment: Not satisfied

Could you now look at the following molecule, please?
query: For this molecule, is measured inhibition at 0.1 µM 80% or higher? CCNCCc1c[nH]c2ccc(NS(=O)(=O)c3sc4ccc(Cl)cc4c3C)cc12 [Example 1]
result: Satisfied
